- Tested on: KRAS PDC multicell spheroid viability;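 also: spheroids exposed to compounds for 7 days; 100% = DMSO vehicle control viability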
- PROTOCOL_DESCRIPTION: Anticancer human tumor 825966-067-R-J1-PDC patient-derived colon carcinoma cell line growth inhibition [KRAS2]
- CONDITION_SET: second compound 1 µM; first compound 0.1 µM; active compounds read low
Reported values of viability, T/C for individual entries
MEASURED_QUANTITY: viability, T/C (%)

[[record]]
molecule = "CN(C)C/C=C/C(=O)Nc1cc2c(Nc3ccc(F)c(Cl)c3)ncnc2cc1O[C@H]1CCOC1 + CNCc1ccccc1-c1csc(C(C)Nc2nc(C)nc3cc(OC)c(OC)cc23)c1"
measured_quantity = "viability, T/C"
endpoint_value = 106

[[record]]
molecule = "CCNC(=O)CC1N=C(c2ccc(Cl)cc2)c2cc(OC)ccc2-n2c(C)nnc21 (stereo unspecified) + CNCc1ccccc1-c1csc(C(C)Nc2nc(C)nc3cc(OC)c(OC)cc23)c1"
measured_quantity = "viability, T/C"
endpoint_value = 113

[[record]]
molecule = "Cn1nccc1Nc1nccc(-c2cc3c(s2)C(C)(C)N(CCN2CCOCC2)C3=O)n1 + CNCc1ccccc1-c1csc(C(C)Nc2nc(C)nc3cc(OC)c(OC)cc23)c1"
measured_quantity = "viability, T/C"
endpoint_value = 137

[[record]]
molecule = "O=C(c1cc(Cc2n[nH]c(=O)c3ccccc23)ccc1F)N1CCN(C(=O)C2CC2)CC1 + CNCc1ccccc1-c1csc(C(C)Nc2nc(C)nc3cc(OC)c(OC)cc23)c1"
measured_quantity = "viability, T/C"
endpoint_value = 90.3

[[record]]
molecule = "CC(C)NCC(C(=O)N1CCN(c2ncnc3c2C(C)CC3O)CC1)c1ccc(Cl)cc1 (stereo unspecified) + CC1OCC2(CCN(c3cnc(Sc4ccnc(N)c4Cl)c(N)n3)CC2)C1N"
measured_quantity = "viability, T/C"
endpoint_value = 102

[[record]]
molecule = "COC(=O)c1ccc2c(C(=Nc3ccc(N(C)C(=O)CN4CCN(C)CC4)cc3)c3ccccc3)c(O)[nH]c2c1 + C=CC(=O)N1CCN(c2nc(=O)n(-c3c(C)ccnc3C(C)C)c3nc(-c4c(O)cccc4F)c(F)cc23)C(C)C1"
measured_quantity = "viability, T/C"
endpoint_value = 75.7

[[record]]
molecule = "CCNC(=O)CC1N=C(c2ccc(Cl)cc2)c2cc(OC)ccc2-n2c(C)nnc21 (stereo unspecified) + COc1cc2nc(C)nc(NC(C)c3cc(N)cc(C(F)(F)F)c3)c2cc1OC1CCOC1"
measured_quantity = "viability, T/C"
endpoint_value = 109

[[record]]
molecule = "CC1(C)CCC(CN2CCN(c3ccc(C(=O)NS(=O)(=O)c4ccc(NCC5CCOCC5)c([N+](=O)[O-])c4)c(Oc4cnc5[nH]ccc5c4)c3)CC2)=C(c2ccc(Cl)cc2)C1 + C=CC(=O)N1CCN(c2nc(OCC3CCCN3C)nc3c2CCN(c2cccc4cccc(C)c24)C3)CC1CC#N"
measured_quantity = "viability, T/C"
endpoint_value = 103

[[record]]
molecule = "CC(C)n1nc(-c2ccc3oc(N)nc3c2)c2c(N)ncnc21 + CNCc1ccccc1-c1csc(C(C)Nc2nc(C)nc3cc(OC)c(OC)cc23)c1"
measured_quantity = "viability, T/C"
endpoint_value = 84.2

[[record]]
molecule = "CCN1CCN(Cc2ccc(Nc3ncc(F)c(-c4cc(F)c5nc(C)n(C(C)C)c5c4)n3)nc2)CC1 + COc1cc2nc(C)nc(NC(C)c3cc(N)cc(C(F)(F)F)c3)c2cc1OC1CCOC1"
measured_quantity = "viability, T/C"
endpoint_value = 152

[[record]]
molecule = "Cn1ncnc1[C@H]1c2n[nH]c(=O)c3cc(F)cc(c23)N[C@@H]1c1ccc(F)cc1 + C=CC(=O)N1CCN(c2nc(OCC3CCCN3C)nc3c2CCN(c2cccc4cccc(C)c24)C3)CC1CC#N"
measured_quantity = "viability, T/C"
endpoint_value = 98.9

